Numbers sourced from paper PMC2566858.

# assayTarget: T1, rGyr_hel (reverse gyrase helicase-like domain) (Thermotoga maritima, UniProt O51934 59-541)
# T1 sequence: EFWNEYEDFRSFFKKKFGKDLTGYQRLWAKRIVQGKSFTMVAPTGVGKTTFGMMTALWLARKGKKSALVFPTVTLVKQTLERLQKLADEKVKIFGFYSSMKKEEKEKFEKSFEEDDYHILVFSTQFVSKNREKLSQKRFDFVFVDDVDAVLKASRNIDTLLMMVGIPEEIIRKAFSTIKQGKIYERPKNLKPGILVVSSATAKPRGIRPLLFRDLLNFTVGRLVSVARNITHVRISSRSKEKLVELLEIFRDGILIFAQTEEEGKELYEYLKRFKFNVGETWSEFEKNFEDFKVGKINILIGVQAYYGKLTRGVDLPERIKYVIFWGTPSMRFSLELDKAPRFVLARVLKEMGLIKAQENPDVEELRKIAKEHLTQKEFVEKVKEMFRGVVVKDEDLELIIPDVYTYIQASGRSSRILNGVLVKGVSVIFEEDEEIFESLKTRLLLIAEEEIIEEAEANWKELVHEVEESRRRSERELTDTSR
# testProtocol: fluorescence anisotropy

| binder | resultUnits | Kd |
| --- | --- | --- |
| 60-base ssDNA (ssDNA) DNA: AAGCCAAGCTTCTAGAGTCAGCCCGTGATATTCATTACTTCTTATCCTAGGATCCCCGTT | nM | 280 |
